- Tested on: WHIM30 (cells of a triple-negative basal-like breast cancer xenograft)
- assayNotes: cell viability (% of vehicle); higher = less cytotoxic;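 further: PDX cells carrying CMV promoter-driven luciferase, viability read as total photon flux per second by IVIS imaging following D-luciferin, vehicle control 0.1% DMSO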
- protocolConditions: 10 µM; 72 h
Below, each entry is listed with its recorded cell viability.
Give the value as a plain number.

Answered cases to consult:
CC(Cc1cc2c(c(C(N)=O)c1)N(CCCO)CC2)NCCOc1ccccc1OCC(F)(F)F (configuration not stated) = 94.2
CCC(C)(C)c1ccc(CC(C)CN2CC(C)OC(C)C2)cc1.Cl (configuration not stated) [Amorolfine HCl] = 166
NC(=O)Cc1cccc(C(=O)c2ccccc2)c1N = 136

Task item: Would you kindly share the measured cell viability for C#Cc1cccc(Nc2ncnc3cc(OCCOC)c(OCCOC)cc23)c1.Cl [Erlotinib Hydrochloride] ?
Reply: 84.5

Task item: What about CC(CN1CC(=O)NC(=O)C1)N1CC(=O)NC(=O)C1 (configuration not stated) ?
Reply: 131

====

- Tested on: HCI09 (cells of a triple-negative luminal androgen receptor type breast cancer xenograft)
- assayNotes: cell viability (% of vehicle); higher = less cytotoxic
- protocolConditions: 10 µM; 72 h
Rule: measured cell viability below 90 gets YES; anything equal to or greater than 90 gets NO.

Worked examples follow.
Nc1nc(=O)c2c(CCc3ccc(C(=O)NC(CCC(=O)O)C(=O)O)cc3)c[nH]c2[nH]1.O.[Na+] (stereo unspecified) [Pemetrexed disodium hemipenta hydrate] = NO
CNC(=O)c1ccc(N2C(=S)N(c3ccc(C#N)c(C(F)(F)F)c3)C(=O)C2(C)C)cc1F [MDV3100 (Enzalutamide)] = NO
Nc1ccc2cc3ccc([NH3+])cc3nc2c1.Nc1ccc2cc3ccc([NH3+])cc3nc2c1.O=S(=O)([O-])[O-] [Proflavine Hemisulfate] = YES
COS(=O)(=O)[O-].C[N+]1(C)CCC(=C(c2ccccc2)c2ccccc2)CC1 [Diphemanil Methylsulfate] = NO
CNC(=C[N+](=O)[O-])NCCSCc1csc(CN(C)C)n1 [Nizatidine] = NO
Cn1c([N+](=O)[O-])cnc1COC(N)=O [Ronidazole] = NO

Consider the record given below.
Task item: I'd appreciate it if you could check whether N=C(N)c1ccc(OCCCCCOc2ccc(C(=N)N)cc2)cc1.O=S(=O)(O)CCO.O=S(=O)(O)CCO [Pentamidine isethionate] has cell viability smaller than 90.
Reply: YES

====

- Tested on: WHIM30
- assayNotes: cell viability (% of vehicle); higher = less cytotoxic
- protocolConditions: 10 µM; 72 h
Below, each entry is listed with its recorded cell viability.
Give the value as a plain number.

Answered cases to consult:
CCCCNC(=O)NS(=O)(=O)c1ccc(C)cc1 [Tolbutamide] = 101
Cc1c(C(=O)NN2CCCCC2)nn(-c2ccc(Cl)cc2Cl)c1-c1ccc(Cl)cc1 = 68.4
Cl.OC(CNCC(O)C1CCc2cc(F)ccc2O1)C1CCc2cc(F)ccc2O1 (stereo not given) = 81
Cn1cnc2c(F)c(Nc3ccc(Br)cc3F)c(C(=O)NOCCO)cc21 = 106
CCc1c2c(nc3ccc(OC(=O)N4CCC(N5CCCCC5)CC4)cc13)-c1cc3c(c(=O)n1C2)COC(=O)C3(O)CC (stereo not given) = 113

Task item: Give recorded cell viability with WHIM30 for the following compound: CCC1OC(=O)C(C)C(OC2CC(C)(OC)C(O)C(C)O2)C(C)C(OC2OC(C)CC(N(C)C)C2O)C(C)(OC)CC(C)C(=O)C(C)C(O)C1(C)O (stereo not given)
Reply: 113

Task item: What about CN(C)CCC=C1c2ccccc2COc2ccc(CC(=O)O)cc21.Cl [Olopatadine HCl] ?
Reply: 108

Task item: What about Clc1ccc(C(Cn2ccnc2)OCc2csc3c(Cl)cccc23)c(Cl)c1.O=[N+]([O-])O (stereo not given) [Sertaconazole nitrate] ?
Reply: 123

Task item: What about Cc1cccc(C)c1OCC(=O)NC(Cc1ccccc1)C(O)CC(Cc1ccccc1)NC(=O)C(C(C)C)N1CCCNC1=O (stereo not given) ?
Reply: 96.4

Task item: What about CN(C)CC=CC(=O)Nc1cc2c(Nc3ccc(F)c(Cl)c3)ncnc2cc1OC1CCOC1 (stereo not given) ?
Reply: 44.3

Task item: What about O=C1OC(C(O)CO)C([O-])=C1O.[Na+] (stereo not given) [Sodium ascorbate] ?
Reply: 120

Task item: What about CCCCN1CCCCC1C(=O)Nc1c(C)cccc1C.Cl (stereo not given) [Levobupivacaine HCl] ?
Reply: 163

Task item: What about CO[C@H]1C[C@@H]2CC[C@@H](C)[C@@](O)(O2)C(=O)C(=O)N2CCCC[C@H]2C(=O)O[C@H]([C@@H](C)C[C@@H]2CC[C@@H](OCCO)[C@H](OC)C2)CC(=O)[C@H](C)/C=C(\C)[C@@H](O)[C@@H](OC)C(=O)[C@H](C)C[C@H](C)/C=C/C=C/C=C/1C [Everolimus (RAD001)] ?
Reply: 160

Task item: What about Nc1nc(CC(=O)Nc2ccc(CCNCC(O)c3ccccc3)cc2)cs1 (stereo not given) ?
Reply: 132

Task item: What about CCCC(CCC)C(=O)[O-].[Na+] [Valproic acid sodium salt (Sodium valproate)] ?
Reply: 192

Task item: What about Nc1nc(N)nc(-c2cc(Cl)ccc2Cl)n1 ?
Reply: 76.4

Task item: What about OCC(O)C(O)C(O)CO (stereo not given) ?
Reply: 83.1

Task item: What about Cl.O=c1n(CCCN2CCN(c3cccc(Cl)c3)CC2)nc2ccccn12 [Trazodone HCl] ?
Reply: 192

Task item: What about O=C1CCC(C(=O)N2CSCC2C(=O)O)N1 (stereo not given) ?
Reply: 122

Task item: What about O=C([O-])c1ccccc1O.[Na+] [Sodium salicylate] ?
Reply: 94.4

Origin of the recorded values: the supplement of paper PMC6992640
